Would you mind telling me the reported ThS net change of each entry?
System: 1N4R p-tau
Construct: made in house; host or cells: E. coli (PIMAX system)
assay.procedure: p-tau aggregation modulator screen of 1280-compound library (ThS fluorescence net change over 16 h);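 note: 30 µM compound with 6 µM p-tau over 16 h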
Type: biochemical
settings: library screen, ThS fluorescence net change over 16 h with p-tau
Where a name gives a salt, the structure may show the parent alone.
Lab note: write the figure by itself, no unit.

// lookup ThS net change for CC(=O)c1ccc2c(c1)N(CCCN1CCC(CCO)CC1)c1ccccc1S2 [Piperacetazine]
243

// lookup ThS net change for COCCOC(=O)C1=C(C)NC(C)=C(C(=O)OC/C=C/c2ccccc2)C1c1cccc([N+](=O)[O-])c1 (stereo not drawn) [Cilnidipine]
230

// lookup ThS net change for C[C@H](N)[C@H](O)c1cccc(O)c1 [Metaraminol bitartrate]
321

// lookup ThS net change for Cc1ccccc1C(OCCN(C)C)c1ccccc1 (stereo not drawn) [Orphenadrine hydrochloride]
295

// lookup ThS net change for C=C1c2c(Cl)ccc(O)c2C(=O)C2=C(O)[C@]3(O)C(=O)C(C(N)=O)=C(O)[C@@H](N(C)C)[C@@H]3[C@@H](O)[C@H]12.O=C(O)c1cc(S(=O)(=O)O)ccc1O [Meclocycline sulfosalicylate]
171

// lookup ThS net change for CSc1ccc2c(c1)N(CCC1CCCCN1C)c1ccccc1S2 (stereo not drawn) [Thioridazine hydrochloride]
252

// lookup ThS net change for Cc1cccc(N(C)C(=S)Oc2ccc3ccccc3c2)c1 [Tolnaftate]
219

// lookup ThS net change for Oc1ccc(C2CNCCc3c2cc(O)c(O)c3Cl)cc1 (stereo not drawn) [Fenoldopam]
310

// lookup ThS net change for C[C@H]1c2cccc(O)c2C(=O)C2=C(O)[C@]3(O)C(=O)C(C(N)=O)=C(O)[C@@H](N(C)C)[C@@H]3[C@@H](O)[C@@H]21 [Doxycycline hydrochloride]
174

// lookup ThS net change for COc1cc(-c2ccc(/N=N/c3ccc4c(S(=O)(=O)[O-])cc(S(=O)(=O)[O-])c(N)c4c3O)c(OC)c2)ccc1/N=N/c1ccc2c(S(=O)(=O)[O-])cc(S(=O)(=O)[O-])c(N)c2c1O.[Na+].[Na+].[Na+].[Na+] [Chicago sky blue 6B]
11

// lookup ThS net change for Cc1cc(N)c2ccccc2[n+]1CCCCCCCCCC[n+]1c(C)cc(N)c2ccccc21 [Dequalinium dichloride]
297

// lookup ThS net change for O=C1CN(/N=C/c2ccc([N+](=O)[O-])o2)C(=O)N1 [Nitrofurantoin]
303

// lookup ThS net change for CN1CCCC(n2nc(Cc3ccc(Cl)cc3)c3ccccc3c2=O)CC1 (stereo not drawn) [Azelastine HCl]
0

// lookup ThS net change for COc1cc(C(=O)NCc2ccc(OCCN(C)C)cc2)cc(OC)c1OC [Trimethobenzamide hydrochloride]
322

// lookup ThS net change for Oc1c(Cl)cc(Cl)c2cccnc12 [Chloroxine]
288

* * *

Tested on: 1N4R p-tau
Construct: made in house; host or cells: E. coli (PIMAX system)
assay.procedure: p-tau aggregation modulator screen of 1280-compound library (ThS fluorescence net change over 16 h);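 note: 30 µM compound with 6 µM p-tau over 16 h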
Type: biochemical
settings: library screen, ThS fluorescence net change over 16 h with p-tau
Counter-ions that a name gives are not always drawn.
measurement.kind: ThS net change
Lab note: write the figure by itself, no unit.

// lookup ThS net change for "CO[C@]12C[C@@H](COC(=O)c3cncc(Br)c3)CN(C)[C@@H]1Cc1cn(C)c3cccc2c13"
260

// lookup ThS net change for CC(C)(C)c1ccc(C(O)CCCN2CCC(C(O)(c3ccccc3)c3ccccc3)CC2)cc1 (stereo not shown)
251

// lookup ThS net change for "CS(=O)(=O)OCCCCOS(C)(=O)=O"
324

// lookup ThS net change for "CCCCOc1ccc(CC(=O)NO)cc1"
140

// lookup ThS net change for "COc1ccc(C(=O)c2ccccc2O)c(O)c1"
296

// lookup ThS net change for "CC(=O)CCCCn1c(=O)c2c(ncn2C)n(C)c1=O"
314

// lookup ThS net change for CN(C)[C@@H]1C(O)=C(C(N)=O)C(=O)[C@@]2(O)C(O)=C3C(=O)c4c(O)ccc(Cl)c4[C@@](C)(O)[C@H]3C[C@@H]12 [Chlortetracycline hydrochloride]
223

// lookup ThS net change for "CO[C@H]1/C=C/O[C@@]2(C)Oc3c(C)c(O)c4c(c3C2=O)C2=NC3(CCN(CC(C)C)CC3)NC2=C(NC(=O)/C(C)=C\C=C\[C@H](C)[C@H](O)[C@@H](C)[C@@H](O)[C@@H](C)[C@H](OC(C)=O)[C@@H]1C)C4=O"
267

// lookup ThS net change for CCCN1C[C@H](CSC)C[C@@H]2c3cccc4[nH]cc(c34)C[C@H]21 [Pergolide mesylate]
279

// lookup ThS net change for "COC1=C(OC)C(=O)C(CCCCCCCCCCO)=C(C)C1=O"
-1

// lookup ThS net change for "O=c1cc(-c2ccc(O)c(O)c2)oc2cc(O)cc(O)c12"
296

// lookup ThS net change for CCSc1ccc2c(c1)N(CCCN1CCN(C)CC1)c1ccccc1S2.O=C(O)CC(O)C(=O)O.O=C(O)CC(O)C(=O)O [Thiethylperazine dimalate]
317

// lookup ThS net change for CC(C)N1CCN(c2ccc(OCC3COC(Cn4cncn4)(c4ccc(Cl)cc4Cl)O3)cc2)CC1 (stereo not shown)
326

// lookup ThS net change for CN1CCN(CC(=O)N2c3ccccc3C(=O)Nc3cccnc32)CC1 [Pirenzepine dihydrochloride]
322

// lookup ThS net change for "O=C1NCN(c2ccccc2)C12CCN(CCCC(c1ccc(F)cc1)c1ccc(F)cc1)CC2"
258

// lookup ThS net change for "CC(=O)Oc1cccc2c1C(=O)c1c(OC(C)=O)cc(C(=O)O)cc1C2=O"
239
